tested on: UACC-62 melanoma; experiment: NCI-60 one-dose screen, 48 h (100 = growth as untreated, 0 = no growth, -100 = all killed); conditions: 10 µM unless noted
Compounds without any hit were thinned out: in the full panel of roughly 83,000, 20% have a hit.
measured endpoint: growth (%)

INSERT INTO measurements (molecule, tested_target, unit_of_measurement, measured) VALUES
  ('O=C1C(Cl)=C(N=Nc2c(Cl)c(O)c3ccccc3c2O)C(=O)c2ccccc21', 'UACC-62 melanoma', '%', 5.34),
  ('O=c1c(O)cccn1CCCNCCCN(CCCn1cccc(O)c1=O)CCCn1cccc(O)c1=O', 'UACC-62 melanoma', '%', 100),
  ('CCN(CC)c1ccc(CN(CC(=O)c2ccc(Cl)c(Cl)c2)Cc2ccccc2)cc1', 'UACC-62 melanoma', '%', 90.9),
  ('O=C1N(C2CCCCC2)C(=O)N1C1CCCCC1', 'UACC-62 melanoma', '%', 38.9),
  ('CC/C(=C\c1ccc(N(C)C)cc1)c1nc2ccccc2c(=O)[nH]1', 'UACC-62 melanoma', '%', 84.1),
  ('NCCCc1nnc(CCC(=O)c2nc3ccccc3[nH]2)o1', 'UACC-62 melanoma', '%', 90.2),
  ('C=C(C[C@](O)(C(=O)/C=C/c1ccc(Cl)cc1)C(=O)OC)c1ccccc1', 'UACC-62 melanoma', '%', 53.8),
  ('COc1ccc(C2=NNC(c3cc(Cc4ccc(O)c(C5CC(c6ccc(OC)cc6)=NN5)c4)ccc3O)C2)cc1 (stereo not given)', 'UACC-62 melanoma', '%', 49.2),
  ('COc1ccc(Cn2cc3c(c2-c2ccccc2)CCc2cncnc2-3)cc1', 'UACC-62 melanoma', '%', 33.3),
  ('CC(C)COCC(CN(Cc1ccccc1)c1ccccc1)N1CCCC1 (stereo not given)', 'UACC-62 melanoma', '%', 81.1);

###

system: HCT-15 colon; test: NCI-60 one-dose screen, 48 h (100 = growth as untreated, 0 = no growth, -100 = all killed); settings: 10 µM unless noted
Compounds without any hit were thinned out: in the full panel of roughly 83,000, 20% have a hit.
Reported growth values are given for each entry in this list.
measured endpoint: growth (%)

INSERT INTO results (compound, tested_target, unit_of_measurement, measured) VALUES
  ('O=NC1CC=CCC1c1ccccc1 (centres undefined)', 'HCT-15 colon', '%', 104),
  ('CC(C)(C)c1ccc(C(O)CCCN2CCC(C(O)(c3ccccc3)c3ccccc3)CC2)cc1 (centres undefined)', 'HCT-15 colon', '%', -73.7),
  ('Fc1ccc([C@@H]2CCNC[C@H]2COc2ccc3c(c2)OCO3)cc1', 'HCT-15 colon', '%', 85.8),
  ('CCCCC(C#N)C(N)=O (centres undefined)', 'HCT-15 colon', '%', 105),
  ('N=C(N)/N=C(\CCc1nc2ccccc2[nH]1)c1nc2ccccc2[nH]1', 'HCT-15 colon', '%', 106),
  ('COc1ccc(Cn2c(NCCCN(C)C)nc(=O)n(Cc3ccc(F)cc3)c2=O)cc1', 'HCT-15 colon', '%', 107),
  ('CCC1=C(c2ccc(OC)cc2)C(C)Oc2cc(OC(C)=O)ccc21 (centres undefined)', 'HCT-15 colon', '%', 85.5),
  ('c1ccc(-c2nnc(Nc3nnc(-c4ccccc4)s3)s2)cc1', 'HCT-15 colon', '%', 102),
  ('COc1ccc2c(c1)C(=O)c1c-2c(OCCCN(C)C)nc2cc(Br)ccc12', 'HCT-15 colon', '%', -31.3),
  ('CCn1c2ccccc2c2ccc(C(C)=O)cc21', 'HCT-15 colon', '%', 107),
  ('CC[C@H](C)C(=O)O[C@H]1C[C@@H](C)C=C2C=C[C@H](C)[C@H](CC[C@@H]3C[C@@H](O)CC(=O)O3)[C@H]21', 'HCT-15 colon', '%', 55.1),
  ('O=[N+]([O-])c1ccc(N/N=C/c2c(O)ccc3ccccc23)nc1', 'HCT-15 colon', '%', 24.5),
  ('O=C(NN(C(=O)c1ccccc1)c1cccs1)c1ccccc1', 'HCT-15 colon', '%', 101),
  ('CCN(CC)CCCNCCCNc1cc(OC)cc2cccnc12', 'HCT-15 colon', '%', 83.9),
  ('O=C(OC[C@H]1O[C@H](OC(=O)c2cc(O)c(O)c(OC(=O)c3cc(O)c(O)c(O)c3)c2)[C@H](OC(=O)c2cc(O)c(O)c(OC(=O)c3cc(O)c(O)c(O)c3)c2)[C@@H](OC(=O)c2cc(O)c(O)c(OC(=O)c3cc(O)c(O)c(O)c3)c2)[C@@H]1OC(=O)c1cc(O)c(O)c(OC(=O)c2cc(O)c(O)c(O)c2)c1)c1cc(O)c(O)c(OC(=O)c2cc(O)c(O)c(O)c2)c1', 'HCT-15 colon', '%', 28.6),
  ('O=C(Nc1nc2ccccc2s1)c1cc(-c2ccc(F)cc2)n2nc(-c3ccccc3)cc2n1', 'HCT-15 colon', '%', 53.7),
  ('C[n+]1c2ccccc2c(Nc2ccc(N3CCCCC3)cc2)c2[nH]c3ccccc3c21', 'HCT-15 colon', '%', -78.8),
  ('COc1ccc(-c2cc(Cc3cccs3)c(=O)n(Cn3cncn3)n2)cc1', 'HCT-15 colon', '%', 101),
  ('COc1cc(OC)c2sc(-c3ccc(-n4cncc4-c4ccc(N)cc4)cc3)nc2c1', 'HCT-15 colon', '%', 69.7),
  ('C/C(=C\CCc1ccoc1)CC/C=C(\C)CCCN1CCC(CO)CC1', 'HCT-15 colon', '%', 25.5),
  ('COc1ccc(C2=NN(C(=O)c3cc(OC)c(OC)c(OC)c3)C(c3ccc(C#N)cc3)C2)cc1OC (centres undefined)', 'HCT-15 colon', '%', 26.7),
  ('OC(CCC(O)(c1ccccc1)c1ccccc1)(c1ccccc1)c1ccccc1', 'HCT-15 colon', '%', 100),
  ('C=C(C)[C@H]1CC/C(C)=C/CC[C@]2(C)O[C@H]2CC/C(C=O)=C\C1O (some centres undefined)', 'HCT-15 colon', '%', 118),
  ('O=C(Nc1ccc(Cl)cc1Cl)Nc1ccc(-c2cccnc2)cc1N1CCC(CO)CC1', 'HCT-15 colon', '%', 26.8),
  ('COc1ccccc1[C@H]1c2[nH]c3ccccc3c2C[C@H]2C(=O)N(CCCCCCC(=O)NO)CC(=O)N12', 'HCT-15 colon', '%', 87.1),
  ('C[C@]12C[C@H](O)[C@H]3[C@@H](CCC4=CC(=O)CC[C@@]43C)[C@@H]1CC[C@@H]2C(=O)CO', 'HCT-15 colon', '%', 92),
  ('Nc1ccc(S(=O)(=O)Nc2ncccn2)cc1', 'HCT-15 colon', '%', 99.1),
  ('COc1cc(Oc2cc(-c3cccnc3)ccc2NC(=O)Nc2ccc(F)cc2F)cc(OC)c1OC', 'HCT-15 colon', '%', 111),
  ('O=C(CCc1nnc2sc(Cc3ccccc3Cl)nn12)c1nc2ccccc2[nH]1', 'HCT-15 colon', '%', 92.3),
  ('O=C1CN(CO)C(=O)CN1CO', 'HCT-15 colon', '%', 106),
  ('COC1=CC(c2ccc[nH]2)=N/C1=C\c1[nH]c(C)c(C(=O)CCC(=O)Oc2ccc3c(c2)CCC2C3CC[C@]3(C)C(=O)CC[C@@H]23)c1C (some centres undefined)', 'HCT-15 colon', '%', 45.6),
  ('CC(C)C(=O)Cc1cnccn1', 'HCT-15 colon', '%', 107),
  ('O=C(Nc1cccc(-n2cc(-c3ccncc3)c(-c3ccc(O)c(Cl)c3)n2)c1)Nc1ccc(Cl)c(C(F)(F)F)c1', 'HCT-15 colon', '%', 17.3),
  ('Cn1cc(-c2csc(-c3cn(C)c4ncccc34)n2)c2cccnc21', 'HCT-15 colon', '%', 90.6),
  ('CN1COc2ccc3ccccc3c2C1', 'HCT-15 colon', '%', 106),
  ('O=C1C2C3C=CC(O3)C2C(=O)N1Nc1ccccc1 (centres undefined)', 'HCT-15 colon', '%', 104),
  ('Fc1ccc(-c2nnc(/C=C/c3cn(-c4ccccc4)nc3-c3ccccc3)o2)cc1', 'HCT-15 colon', '%', 96.1),
  ('O=C1CC(C(F)(F)F)=NN1C(=O)c1nn(-c2ccc(Cl)cc2)cc1O', 'HCT-15 colon', '%', 69.9),
  ('COc1ccc(/C=N\Nc2ccc([N+](=O)[O-])cn2)cc1OC', 'HCT-15 colon', '%', 95.8);

###

tested on: A549/ATCC NSCLC; assay: NCI-60 one-dose screen, 48 h (100 = growth as untreated, 0 = no growth, -100 = all killed); conditions: 10 µM unless noted
Compounds without any hit were thinned out: in the full panel of roughly 83,000, 20% have a hit.
Reported growth values are given for each entry in this list.
measured endpoint: growth (%)

INSERT INTO measurements (molecule, unit_of_measurement, measured) VALUES
  ('CCCCCCC(C)(O)c1ccccc1 (configuration not stated)', '%', 110),
  ('O=C1OCC/C1=C\OCCCO/C=C1\CCOC1=O', '%', 98.7),
  ('Nc1nc(SCc2ccccc2Cl)c(-c2ccccc2)c(SCc2ccccc2Cl)n1', '%', 79.3),
  ('COc1cccc(/C=C2\COc3ccc(O)c(O)c3C2=O)c1OC', '%', 32.5),
  ('Cc1nnc(Nc2ccc(NC(=O)Nc3ccc(Cl)cc3)cc2)c2ccccc12', '%', 26.4),
  ('Cc1nc(N)[nH]c(=O)c1C', '%', 103),
  ('COc1ccc(-c2nc3sccn3c2-c2ccnc(S(C)(=O)=O)n2)cc1', '%', 105),
  ('COc1cc2c(-c3nc4cc(Cl)c(F)cc4s3)cc(=O)oc2c(C)c1OC', '%', -53.9),
  ('Clc1cc(Cl)c(OCC#CI)cc1Cl', '%', 101),
  ('O=C1CC(=O)N(c2ccccc2)O1', '%', 107),
  ('S=C(c1ccccc1)N1CCN(c2cccc(Cl)c2)CC1', '%', 87.8),
  ('COc1ccc(-c2csc(NC(=O)c3cc(OC)c(OC)c(OC)c3)n2)cc1', '%', 102);
